# Test system: HCT-116 colon
# procedureDetails: NCI tumour cell line growth inhibition, 48 h
Assignment: determine reported TGI for the given compounds.

Lookup: API: value(readout=TGI, system=HCT-116 colon) for record CS(=O)(=O)N1CCC(n2c(=O)c(Oc3ccc(F)cc3F)cc3cnc(NC4CCOCC4)nc32)CC1
Found: > 25 µM

Lookup: Provide the documented TGI with HCT-116 colon as the system for CCC12CCCN(Cc3ccccc3)C1c1c(n(C)c3ccccc13)C(CO)C2 (configuration not stated)
Found: 53.6 µM

Lookup: Which TGI is reported with HCT-116 colon for this entry: CCn1c2nc(=O)n(CCCCCCCCSC(c3ccccc3)(c3ccccc3)c3ccccc3)c(=O)c-2nc2ccccc21 ?
Found: > 100 µM

Lookup: What is its TGI for HCT-116 colon? Entry: CSc1cc(Cl)c(C)cc1S(=O)(=O)NC(=O)NNc1ccc(F)cc1
Found: > 100 µM

Lookup: GET /values?readout=TGI&system=HCT-116 colon&item= C/C=C1/CN2CCC34c5ccccc5N(C)C23C2CC1C4(C(=O)OC)C(OC(C)=O)O2 (configuration not stated)
Found: > 100 µM

Lookup: Request: TGI, test system HCT-116 colon, entry COC(=O)[C@H]1COC(=S)N1C(=O)[C@@H](C)[C@H](O)C(C)C
Found: > 100 µM

Lookup: Item: Cc1cc2cc3cc(C)c(N)cc3nc2cc1N Test system: HCT-116 colon Read-out: TGI Value: ?
Found: 1.31 µM

Lookup: Could you share what TGI was measured for O=C(CN1CCN(Cc2ccccc2Cl)CC1)NC1CC(=O)c2c(Br)sc(Br)c21 (configuration not stated) , tested on HCT-116 colon?
Found: 32.9 µM

Lookup: Form entry - test system: HCT-116 colon; read-out: TGI; compound: Cc1ccc(/C=C/C(=O)Oc2ccc(/C=C3\CCC/C(=C\c4ccc(OC(=O)/C=C/c5ccc(C)cc5)cc4)C3=O)cc2)cc1
Found: > 100 µM

Lookup: // lookup TGI | system=HCT-116 colon | key= Cc1ccc(Cc2cc(N3CCN(c4cccc(Cl)c4)CC3)nnc2C)cc1
Found: > 100 µM

Lookup: Give TGI (HCT-116 colon) of the following compound: COc1ccc2nc3c([N+](=O)[O-])ccc(NCCN(C)C)c3c(N)c2c1
Found: 0.296 µM

Lookup: // fetch HCT-116 colon TGI for CC1(C)CC(=O)C=C(/C=C/Sc2c(Cl)c(Cl)nc(Cl)c2Cl)C1
Found: 13.3 µM

Lookup: Missing value: TGI, HCT-116 colon, entry CC(C)OP(=S)(NC(=S)c1ccccc1)OC(C)C . Fill in?
Found: > 100 µM

Lookup: // map OCC1OC2c3ccccc3COC2C1OCc1ccccc1 (configuration not stated) to recorded TGI (system: HCT-116 colon)
Found: > 100 µM

Lookup: Missing value: TGI, HCT-116 colon, entry Cc1ccc(C)c2c1C(=O)N(c1ccc(F)cc1F)C2=O . Fill in?
Found: > 100 µM

Lookup: Reported TGI for HCT-116 colon, given NC1N=Nc2ccccc21 (configuration not stated) ?
Found: > 100 µM

Lookup: HCT-116 colon / TGI / CC(=O)C(=O)NC1/C=C(C)\C=C/C(O)C/C=C(C)\C=C/C(O)CC2OC(=O)C1(C)C(=O)C2C (configuration not stated) : value?
Found: > 100 µM

Lookup: HCT-116 colon / TGI / CCOC(=O)/C=C(/C(=O)OCC)n1cc(C)c(=O)n(Cc2cnnn2COCCOC(C)=O)c1=O : value?
Found: 28.4 µM

Lookup: Observed TGI on HCT-116 colon for COc1cccc(C=O)c1C(=O)c1cc(O)ccc1O , please.
Found: 39.2 µM

Lookup: I'm curious: which TGI was measured for COc1ccc(-c2oc3ccccc3c(=O)c2O)cc1OC tested on HCT-116 colon?
Found: > 100 µM

Lookup: Value wanted: TGI (HCT-116 colon) of entry O=P(O)(O)c1ccc(-c2ccc(I)cc2)cc1
Found: > 100 µM

Lookup: Give HCT-116 colon TGI for ClCCCSSCCCCl
Found: > 90.8 µM

----------
Please respond with reported GI50 for every item in the list.
# Tested on: UACC-257 melanoma
# procedureDetails: NCI tumour cell line growth inhibition, 48 h

Lookup: Name the reported GI50 value associated with the compound Cc1ccc([P+](Cc2ccccc2)(c2ccccc2)c2ccccc2)cc1
Found: 0.98 µM

Lookup: Reported GI50 for CC1CCC2C(C)C(=O)OC3OC4(C)CCC1C32OO4 (configuration not stated) : what is it?
Found: > 100 µM

Lookup: Fill blank: measured GI50 of the compound COc1ccc(/C=C/C(=O)c2c(O)ccc3c(C)c(C(=O)O)oc23)cc1 is ____.
Found: 84.9 µM

Lookup: Form field: reported GI50 of CN1CCN(Cc2ccc(NC(=O)c3cncc(C#Cc4c(N)ncc5ccc(C#N)cc45)c3)cc2C(F)(F)F)CC1
Found: 0.483 µM

Lookup: GI50 lookup needed for NC(=O)c1cccc2c(N[C@H](CN3CCC3)c3ccc(Cl)c(C(F)(F)F)c3)ncnc12 , thanks.
Found: 1.22 µM

Lookup: # query: GI50 of entry CCN1CCC(CC(=O)Nc2n[nH]c3nnc(-c4cccc(F)c4F)cc23)CC1
Found: > 25 µM

Lookup: Field request: GI50 | item: Cc1ccc(C)c2c1C(=O)N(c1ccc(F)cc1F)C2=O
Found: > 100 µM

Lookup: Which measured GI50 value corresponds to O=C(CN1CCN(Cc2ccccc2Cl)CC1)NC1CC(=O)c2c(Br)sc(Br)c21 (configuration not stated) ?
Found: 22.3 µM

Lookup: Fill in: GI50 of Cn1cc(C2=C(c3c4n(c5ccccc35)CCNC4)C(=O)NC2=O)c2ccccc21 is ___
Found: > 11.4 µM

Lookup: Sample C/C(CCC(=O)O)=N/Nc1ccc([N+](=O)[O-])cc1 — what was its GI50?
Found: 70.6 µM

Lookup: Which GI50 is listed for C[C@@H](N)COc1ccc(-c2cnc3ccc(N[C@H](C)c4cccc(F)c4)nn23)cc1 ?
Found: 1.62 µM

Lookup: // GI50 lookup, key: COc1cc(OC)cc(Oc2cnc3cc(N)cc(N)c3n2)c1
Found: 18 µM

----------
# Tested on: DU-145 prostate
# procedureDetails: NCI tumour cell line growth inhibition, 48 h
property: GI50

Lookup: So what does the record say about GI50 for O=C([O][Hg][c]1ccccc1)c1ccccc1 ?
Found: 1.95 µM

Lookup: Record request: GI50 value, item O=[N+]([O-])c1ccc(/C=C/c2nc3ccc(Cl)cc3[nH]2)cc1
Found: 19.4 µM

Lookup: Any idea what its GI50 is? The compound is CNS(=O)(=O)OCC1OC(n2cnc3cncnc32)C(O)C1O (stereo not drawn)
Found: > 100 µM

Lookup: I am curious: what GI50 value has been reported for CN1CCN(C(=O)[C@@]2(C)CC[C@]3(C)CC[C@]4(C)C(=CC[C@@H]5[C@@]6(C)CCC(=O)NC(C)(C)[C@@H]6CC[C@]54C)[C@@H]3C2)CC1 ?
Found: 3.44 µM

Lookup: Quick one: GI50 for Cc1ccc(C)c2c1C(=O)N(c1ccc(F)cc1F)C2=O ?
Found: > 100 µM

Lookup: Give its GI50 value. Item: CCN1CCC(CC(=O)Nc2n[nH]c3nnc(-c4cccc(F)c4F)cc23)CC1
Found: > 25 µM

Lookup: Dear colleague, I am looking for the recorded GI50 of the following compound: CN(C)C1CCN(Cc2ccc(NC(=O)c3cncc(C#Cc4cnc(N)c5ncccc45)c3)cc2C(F)(F)F)CC1
Found: 0.904 µM

Lookup: # query: GI50 of entry O=C(CN1CCN(Cc2ccccc2Cl)CC1)NC1CC(=O)c2c(Br)sc(Br)c21 (stereo not drawn)
Found: 18.8 µM

Lookup: Request the reported GI50 associated with Cc1ccc(-c2nc3nc(-c4ccc(F)cc4)nc(N4CCNCC4)c3o2)cc1
Found: 2.6 µM

Lookup: Bench note: what GI50 did CS(=O)(=O)N1CCC(n2c(=O)c(Oc3ccc(F)cc3F)cc3cnc(NC4CCOCC4)nc32)CC1 show?
Found: > 25 µM

Lookup: Which GI50 value is on record for CCn1c(-c2nonc2N)nc2c(C#CC(C)(C)O)ncc(OC3CCNCC3)c21 ?
Found: 10.4 µM

Lookup: # get_value(readout='GI50', item= COc1cc(OC)cc(Oc2cnc3cc(N)cc(N)c3n2)c1 )
Found: 17.6 µM

Lookup: Consider the compound C[C@H](c1ccc(F)cc1CCCC(=O)O)N(c1cc(F)ccc1F)S(=O)(=O)c1ccc(Cl)cc1 and give its measured GI50.
Found: 34 µM

----------
# Tested on: OVCAR-4 ovarian
# procedureDetails: NCI tumour cell line growth inhibition, 48 h
property: TGI

Lookup: I am curious: what TGI value has been reported for COC(=O)[C@H]1COC(=S)N1C(=O)[C@@H](C)[C@H](O)C(C)C ?
Found: > 100 µM

Lookup: What TGI value was documented for this compound, CCCCCCCCCCCCCC[n+]1ccccc1 ?
Found: 2.91 µM

Lookup: // TGI lookup, key: COc1cc(C2c3cc4c(cc3OC(NNC(N)=O)C2C)OCO4)cc(OC)c1OC (centres undefined)
Found: > 100 µM

Lookup: Which TGI reading was recorded for the compound Cn1cc(C2=C(c3c4n(c5ccccc35)CCNC4)C(=O)NC2=O)c2ccccc21 ?
Found: > 25 µM

Hey, just so you know, these numbers are from PubChem BioAssay (NCI).
